Tested target: Muscarinic acetylcholine receptor M1 (Homo sapiens, UniProt P11229)
Sequence (P11229 whole entry): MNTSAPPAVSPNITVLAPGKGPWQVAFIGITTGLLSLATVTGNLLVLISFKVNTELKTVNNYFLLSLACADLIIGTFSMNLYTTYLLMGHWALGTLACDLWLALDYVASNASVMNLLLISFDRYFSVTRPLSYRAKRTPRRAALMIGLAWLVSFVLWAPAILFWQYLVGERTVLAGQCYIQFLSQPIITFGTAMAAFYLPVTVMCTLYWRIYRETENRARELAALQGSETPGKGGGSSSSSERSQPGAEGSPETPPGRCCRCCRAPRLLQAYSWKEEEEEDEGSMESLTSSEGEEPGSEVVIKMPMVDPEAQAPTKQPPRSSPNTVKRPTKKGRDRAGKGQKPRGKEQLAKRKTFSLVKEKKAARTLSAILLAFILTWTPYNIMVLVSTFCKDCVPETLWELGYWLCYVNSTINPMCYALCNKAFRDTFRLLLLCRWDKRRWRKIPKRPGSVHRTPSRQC
Experiment notes: Positive allosteric modulation of human muscarinic acetylcholine M1 receptor expressed in CHO cells assessed as potentiation of acetylcholine-induced calcium mobilization
Assay type: functional, cell-based
Test conditions: read-out: pEC50 (converted)
Quantity measured: EC50 (µM)

>  <Compound>
O=C(N[C@H]1CCCC[C@@H]1O)C1CN(Cc2ccc(-n3cccn3)nc2)c2ccccc2O1 (mixture of isomers)

>  <Tested target>
Muscarinic acetylcholine receptor M1 (Homo sapiens, UniProt P11229)

>  <Quantity measured>
EC50

>  <Unit symbol>
µM

>  <Test value>
0.708

$$$$

[A] O=C(N[C@H]1CCCC[C@@H]1O)C1CN(Cc2ccc(-n3cccn3)cc2)c2c(F)cccc2O1 (stereo not given in full)
[B] O=C(Nc1ncccc1O)C1CN(Cc2ccc(-n3cccn3)cc2)c2ccccc2O1 (stereo not given)
[C] COc1cccnc1NC(=O)C1CN(Cc2ccc(-n3cccn3)cc2)c2ccccc2O1 (stereo not given)
[D] O=C(N[C@H]1CCCC[C@@H]1O)C1CN(Cc2ccc(Br)nc2)c2ccccc2O1 (stereo not given in full)
Qu. Order the records so the highest EC50 appears first and the lowest last. Order the labels as requested and list them.
Ans. A, C, D, B
